test system: Mycobacterium tuberculosis; experiment: Cornell M. t heat shock assay; assay type: functional, organism-based; design: dose or concentration left out as unconfirmed; further: in the data most compounds retested in dose-response had high values
The whole screen tested about 69,000 compounds, of which about 950 (1.4%) showed an effect of 50% or more. The full list was thinned out, with strong results kept by preference.
parameterMeasured: Percent Effect (%)
Respond with the bare value in %.

Reference set, count: 6
Input: Tell me measured Percent Effect for Cc1cccnc1NCCNc1cc(C(C)C)nc2ccnn12 please.
Output: 97.5

Input: Tell me measured Percent Effect for O=C(O)C(F)(F)F.c1cc(-c2ccc3nc(C4CCN(CC5CC5)CC4)nn3c2)cs1 please.
Output: -34.74

Input: Tell me measured Percent Effect for COCCC(=O)N1C[C@H]2CN(Cc3cccc(C)n3)C(=O)[C@H]2C1.O=C(O)C(F)(F)F please.
Output: -12.42

Input: Tell me measured Percent Effect for CC(C)OCCCN(Cc1ccncc1)Cc1cc(F)ccc1F.Cl please.
Output: -8.981

Input: Tell me measured Percent Effect for CCCS(=O)(=O)N1C[C@@H](Oc2ncccc2F)[C@H]2OCCC[C@H]21.O=C(O)C(F)(F)F please.
Output: -14.35

Input: Tell me measured Percent Effect for O=C(N1CCCO1)[C@@]12CCO[C@@H]1CCN(Cc1cccs1)C2.O=C(O)C(F)(F)F please.
Output: -21.11

---
Input: Tell me measured Percent Effect for Cc1cc2nc(C(C)C)cc(NCCNc3ncccc3C)n2n1 please.
Output: -16.57

Input: Tell me measured Percent Effect for O=c1cc(CN2CCCC2)nc2n1CCCN(Cc1ccsc1)C2 please.
Output: -27.96

Input: Tell me measured Percent Effect for O=C(Cc1cnc(-c2c(Cl)cccc2Cl)s1)N1CCOCC1 please.
Output: -11.24

Input: Tell me measured Percent Effect for NC(=O)C1CCN(C(=O)Cc2cnc(-c3c(Cl)cccc3Cl)s2)CC1 please.
Output: 65.47

----------
system: Mycobacterium tuberculosis; experiment: Cornell M. t heat shock assay; assay type: functional, organism-based; parameters: dose or concentration left out as unconfirmed; further: in the data most compounds retested in dose-response had high values
The whole screen tested about 69,000 compounds, of which about 950 (1.4%) showed an effect of 50% or more. Only a selection was taken, and strong results are over-represented in it overall.
Please note: Fulfilled applies when Percent Effect is 20% or greater, and Not fulfilled applies otherwise.

Here's what some known entries look like.
Input: hey, is Percent Effect for this one >= 20%? Cc1cn2c(n1)C(CNCc1ccc(C)s1)CCC2 (stereo not given)
Output: Not fulfilled

Input: hey, is Percent Effect for this one >= 20%? CCC(CN1CCOCC1)n1cncc1-c1ccc2c(c1)CCCN2C.Cl (stereo not given)
Output: Not fulfilled

Input: hey, is Percent Effect for this one >= 20%? CCc1noc(CSc2n[nH]c(-c3ccccn3)n2)n1
Output: Fulfilled

Input: hey, is Percent Effect for this one >= 20%? CCc1nnc(CSc2ccccn2)o1
Output: Not fulfilled

Input: hey, is Percent Effect for this one >= 20%? Cc1cn2c(n1)C(CNCC1=Cc3ccccc3OC1)CCC2 (stereo not given)
Output: Fulfilled

---
Input: hey, is Percent Effect for this one >= 20%? c1ccc(-c2nc(SCc3nnc(C4CC4)o3)n[nH]2)nc1
Output: Fulfilled

Input: hey, is Percent Effect for this one >= 20%? O=C(O)C(F)(F)F.O=C(O)C(F)(F)F.c1cncc(N2CCOCC3(CCCN(Cc4cccs4)C3)C2)c1 (stereo not given)
Output: Not fulfilled

Input: hey, is Percent Effect for this one >= 20%? CCC(CN1CCOCC1)n1cncc1-c1ccc2c(c1)CCN2CC.Cl (stereo not given)
Output: Fulfilled

Input: hey, is Percent Effect for this one >= 20%? CN(Cc1ccco1)Cc1cncc2c1CCN(Cc1ccoc1)C2.Cl.Cl.Cl
Output: Not fulfilled

Input: hey, is Percent Effect for this one >= 20%? CNC(=O)[C@H]1C[C@@H]2CN(Cc3cccnc3OC)C[C@@H]2N1C(C)=O.O=C(O)C(F)(F)F.O=C(O)C(F)(F)F
Output: Not fulfilled

Source: ChEMBL document CHEMBL3988442
